Provide the recorded IC50 for the entries that follow.
target_or_system: P2X purinoceptor 1 (Homo sapiens)
protocol_notes: Antagonist activity at non-desensitizing human P2X1 receptor ( P2X2/P2X1 chimera) expressed in human 1321N1 cells assessed as inhibition of ATP-induced calcium influx pre-incubated for 30 mins before ATP stimulation by FLIPR assay relative to control

1) O=C(CNc1cc(C(F)(F)F)cc(C(F)(F)F)c1)c1cc(Cl)ccc1O; 1.79 µM
2) O=C(Nc1cc(C(F)(F)F)cc(C(F)(F)F)c1)c1ccccc1Cl; 539 µM
3) O=C(Nc1cccnc1)c1ccccc1O; > 10 µM
4) O=C(Nc1cc(C(F)(F)F)cc(C(F)(F)F)c1)c1cccc(Cl)c1O; 0.058 µM
5) Cc1cc(C)cc(NC(=O)c2cc(Cl)ccc2O)c1; 0.323 µM

Items follow; give IC50 for each.
1. O=C(Nc1cc(C(F)(F)F)cc(C(F)(F)F)c1)c1ccccc1
2. N#Cc1ccc(NC(=O)c2cc(Cl)ccc2O)cc1
3. O=C(Nc1cc(C(F)(F)F)cc(C(F)(F)F)c1)c1c(O)cccc1O
4. O=C(Nc1cccc(C(F)(F)F)c1)c1cc(Cl)ccc1O
5. O=S(=O)(Nc1cc(C(F)(F)F)cc(C(F)(F)F)c1)c1cc(Cl)ccc1O
6. O=C(Nc1ccc(F)cc1)c1cc(Cl)ccc1O

Output:
2.22 µM
> 10 µM
8 µM
0.091 µM
0.439 µM
0.907 µM

----------
target_or_system: P2X purinoceptor 1 (Homo sapiens) (UniProt P51575)
Sequence (whole entry): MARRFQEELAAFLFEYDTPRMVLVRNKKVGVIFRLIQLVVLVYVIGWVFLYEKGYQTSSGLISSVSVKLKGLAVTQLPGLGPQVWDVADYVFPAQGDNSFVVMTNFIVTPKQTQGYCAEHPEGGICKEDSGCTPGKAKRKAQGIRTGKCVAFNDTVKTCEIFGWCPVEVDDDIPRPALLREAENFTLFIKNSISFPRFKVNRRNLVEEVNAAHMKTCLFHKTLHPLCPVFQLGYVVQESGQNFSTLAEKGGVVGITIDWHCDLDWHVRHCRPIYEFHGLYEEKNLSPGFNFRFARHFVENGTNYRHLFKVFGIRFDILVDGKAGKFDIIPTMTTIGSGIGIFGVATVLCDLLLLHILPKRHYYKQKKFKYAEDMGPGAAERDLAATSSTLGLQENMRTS
protocol_notes: Antagonist activity at non-desensitizing human P2X1 receptor ( P2X2/P2X1 chimera) expressed in human 1321N1 cells assessed as inhibition of ATP-induced calcium influx at 10 uM pre-incubated for 30 mins before ATP stimulation by FLIPR assay relative to control
Format: cell-based
Answer each item with its documented inhibition.
Answers are plain numbers, in %.

Sample answers from the record:
1) O=C(Nc1cc(C(F)(F)F)cc(C(F)(F)F)c1)c1cc(F)ccc1O; 96
2) O=C(Nc1cc(C(F)(F)F)cc(C(F)(F)F)c1)c1cc([N+](=O)[O-])ccc1O; 99
3) O=C(Nc1ccc(Cl)cc1)c1cc(Cl)ccc1O; 55

Now look at this one.
Input: // inhibition lookup, key: O=S(=O)(Nc1cc(C(F)(F)F)cc(C(F)(F)F)c1)c1cc(Cl)ccc1O
Output: 80

----------
target_or_system: P2X purinoceptor 1 (Homo sapiens)
protocol_notes: Antagonist activity at non-desensitizing human P2X1 receptor ( P2X2/P2X1 chimera) expressed in human 1321N1 cells assessed as inhibition of ATP-induced calcium influx pre-incubated for 30 mins before ATP stimulation by FLIPR assay relative to control
experimental_endpoint: IC50 (nM)
One number for each entry, in nM.

1. O=C(Nc1cc([N+](=O)[O-])cc(C(F)(F)F)c1)c1cc(Cl)ccc1O; 31.6
2. CN(C(=O)c1cc(Cl)ccc1O)c1cc(C(F)(F)F)cc(C(F)(F)F)c1; 4060
3. O=C(Nc1cc(C(F)(F)F)cc(C(F)(F)F)c1)N1CCCc2cccc(O)c21; 10400
4. O=C(Nc1cc(F)cc(F)c1)c1cc(Cl)ccc1O; 50.5
5. Cc1cccc(C(=O)Nc2cc(C(F)(F)F)cc(C(F)(F)F)c2)c1O; 655

Quick batch: IC50 for everything below.
1. N#Cc1cccc(NC(=O)c2cc(Cl)ccc2O)c1
2. O=C(Nc1cc(C(F)(F)F)cc(C(F)(F)F)c1)c1ccc2ccccc2c1O

Output:
[522, 341]

Kindly give each listed record's IC50.
1. O=C(NCc1cc(C(F)(F)F)cc(C(F)(F)F)c1)c1cc(Cl)ccc1O
2. O=C(Nc1cc(C(F)(F)F)cc(C(F)(F)F)c1)c1cc(O)ccc1O

Output:
1: 1530; 2: 3410

The origin of these recorded values is ChEMBL document CHEMBL4613266.
